- experiment_notes: MRT in CD rat at 1 mg/kg, iv
- Assay type: ADME, organism-based
- condition_label: in vivo
observable: MRT (h)
Supply the numeric figure in h, leaving out any unit text.

Problem: Tell us which MRT value is on record for COc1cc(/C=C2\CCCN3C2=NO[C@H](c2cc(F)cc(F)c2)[C@@H]3C)ccc1-n1cnc(C)c1
Result: 1.7

###

Record: pIC50 reported on Cytochrome P450 3A4 (Homo sapiens).
Sequence (P08684 whole entry): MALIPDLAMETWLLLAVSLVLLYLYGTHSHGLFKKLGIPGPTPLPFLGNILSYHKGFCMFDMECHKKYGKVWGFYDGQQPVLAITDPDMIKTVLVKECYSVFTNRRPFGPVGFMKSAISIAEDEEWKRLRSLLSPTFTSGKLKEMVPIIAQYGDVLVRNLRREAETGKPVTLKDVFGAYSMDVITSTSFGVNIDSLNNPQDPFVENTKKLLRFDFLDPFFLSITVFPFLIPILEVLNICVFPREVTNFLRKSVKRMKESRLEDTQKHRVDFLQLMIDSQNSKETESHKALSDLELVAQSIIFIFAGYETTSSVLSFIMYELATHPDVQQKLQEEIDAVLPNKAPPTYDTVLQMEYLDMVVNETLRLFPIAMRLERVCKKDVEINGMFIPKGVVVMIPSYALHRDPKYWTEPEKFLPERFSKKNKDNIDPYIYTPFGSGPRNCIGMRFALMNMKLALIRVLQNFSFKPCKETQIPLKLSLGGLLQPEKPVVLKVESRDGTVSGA
Worth noting: pIC50 values are minus log10 of concentrations stated in mol/L.

{"input_smiles": "COc1cc(C2=CC3=NOC[C@H](c4cc(F)c(F)c(F)c4)N3CCC2)ccc1-n1cnc(C)c1", "quantitative_result": 4.52}

Problem: Please list pIC50 recorded for the molecule COc1cc(/C=C2\CCCN3C2=NO[C@H](c2cc(F)cc(F)c2)[C@@H]3C)ccc1-n1cnc(C)c1
Result: 4.80
